Each recorded value in this set is attributed to patent US20060247223A1.

# experimental system: H3 receptor (Rattus norvegicus, UniProt Q9QYN8)
# Construct: release of neosynthesized tritiated histamine from rat cerebral cortex synaptosomes; from tissue; host or cells: rat cerebral cortex synaptosomes
# Sequence (Q9QYN8 whole entry): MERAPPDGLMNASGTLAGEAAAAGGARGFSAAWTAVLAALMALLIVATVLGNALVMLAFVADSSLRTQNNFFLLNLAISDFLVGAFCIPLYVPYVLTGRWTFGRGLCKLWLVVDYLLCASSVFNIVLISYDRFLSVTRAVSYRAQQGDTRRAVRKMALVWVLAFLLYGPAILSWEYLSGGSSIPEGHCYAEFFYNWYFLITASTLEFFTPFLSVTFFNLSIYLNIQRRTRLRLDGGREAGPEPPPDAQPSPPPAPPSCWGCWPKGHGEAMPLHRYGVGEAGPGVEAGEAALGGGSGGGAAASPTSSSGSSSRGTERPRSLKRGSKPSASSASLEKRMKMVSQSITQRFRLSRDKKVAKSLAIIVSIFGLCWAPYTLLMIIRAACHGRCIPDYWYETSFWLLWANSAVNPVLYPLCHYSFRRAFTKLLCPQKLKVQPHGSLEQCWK
# protocol notes: release of neosynthesized tritiated histamine from rat cerebral cortex synaptosomes
# Type: biochemical
# test parameters: H3 receptor, rat cerebral cortex synaptosomes, reversal of (R)α-methylhistamine inhibition of tritiated histamine release; read-out: Ki
quantity name: Ki (nM)

Sample answers from the record:
compound	Ki / nM
CCN(CC)CCCOc1ccc(C(C)=O)cc1 [Example 46]	20
N#Cc1ccc(OCCCN2CCCCCC2)cc1 [Example 60]	8.7
O=[N+]([O-])c1ccc(OCCCCCN2CCCC2)cc1 [Example 18]	39

[1] CCN(CC)CCCOc1ccc(C#N)cc1 [Example 43]
[2] CCC(=O)c1ccc(OCCCN2CCCCC2)cc1 [Example 69]
For the pair 1 and 2 , which entry has the numerically smaller recorded Ki? Reply briefly: the label of your chosen item. 2

----------
# experimental system: H3 receptor (Mus musculus, UniProt P58406)
# Construct: estimated in vivo by the measurement of the tele-methylhistamine level variations in the brain of mice; from tissue; host or cells: mouse brain, in vivo after p.o. administration
# Sequence (P58406 whole entry): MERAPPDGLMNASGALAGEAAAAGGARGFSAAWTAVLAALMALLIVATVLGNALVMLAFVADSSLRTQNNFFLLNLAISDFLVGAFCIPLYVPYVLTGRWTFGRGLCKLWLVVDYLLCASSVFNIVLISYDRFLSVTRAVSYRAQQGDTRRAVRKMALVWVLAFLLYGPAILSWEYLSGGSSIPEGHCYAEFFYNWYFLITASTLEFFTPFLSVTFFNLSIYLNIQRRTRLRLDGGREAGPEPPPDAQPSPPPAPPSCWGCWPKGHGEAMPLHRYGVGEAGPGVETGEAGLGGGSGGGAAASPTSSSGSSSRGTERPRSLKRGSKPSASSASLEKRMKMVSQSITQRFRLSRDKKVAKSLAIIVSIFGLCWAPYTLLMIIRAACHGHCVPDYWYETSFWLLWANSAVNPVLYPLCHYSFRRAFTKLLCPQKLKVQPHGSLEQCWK
# protocol notes: tele-methylhistamine level variations in the brain of mice after p.o. administration
# Format: in vivo
# test parameters: mouse, po, brain tele-methylhistamine level, dose responsible for an half maximal effect
quantity name: ED50 (mg/kg)

molecule	experimental system	measured number
O=C(c1ccc(OCCCN2CCCCC2)cc1)C1CC1	H3 receptor (Mus musculus, UniProt P58406)	0.18
CCCC(=O)c1ccc(OCCCN2CCCCC2)cc1 [Example 74, 1-[3-(4-buyrylphenoxy)propyl]piperidine]	H3 receptor (Mus musculus, UniProt P58406)	0.21
N#Cc1ccc(OCCCN2CCCCC2)cc1 [Example 59, 1-[3-(4-cyanophenoxy)propyl]piperidine]	H3 receptor (Mus musculus, UniProt P58406)	0.02
CCC(=O)c1ccc(OCCCN2CCCC(C)C2)cc1 (centres unmarked)	H3 receptor (Mus musculus, UniProt P58406)	0.14
C[C@H]1C[C@H](C)CN(CCCOc2ccc(C(=O)C3CC3)cc2)C1 (relative stereo)	H3 receptor (Mus musculus, UniProt P58406)	0.17

----------
# experimental system: H3 receptor (Rattus norvegicus)
# Construct: release of neosynthesized tritiated histamine from rat cerebral cortex synaptosomes; from tissue; host or cells: rat cerebral cortex synaptosomes
# protocol notes: release of neosynthesized tritiated histamine from rat cerebral cortex synaptosomes
# Format: biochemical
quantity name: Ki (nM)
Write the answer as a number in nM, unit excluded.

Which value of Ki has been reported for N#Cc1ccc(OCCCN2CCCCC2)cc1 [Example 59, 1-[3-(4-cyanophenoxy)propyl]piperidine] in the records? 11

----------
# experimental system: H3 receptor (Rattus norvegicus)
# Construct: release of neosynthesized tritiated histamine from rat cerebral cortex synaptosomes; from tissue; host or cells: rat cerebral cortex synaptosomes
# protocol notes: release of neosynthesized tritiated histamine from rat cerebral cortex synaptosomes
# Type: biochemical
# test parameters: H3 receptor, rat cerebral cortex synaptosomes, reversal of (R)α-methylhistamine inhibition of tritiated histamine release; read-out: Ki
pKi: −log10 of the molar value.
quantity name: pKi

Sample answers from the record:
compound	measured number
CCN(CC)CCCOc1ccc(C(C)O)cc1 (stereo not drawn)	7.22
CC(=O)c1ccc(OCCCN2CCCC(C)C2)cc1 (stereo not drawn)	8.43

[a] CC(O)c1ccc(OCCCCCN2CCCC2)cc1 (stereo not drawn)
[b] CC(=O)c1ccc(OCCCN2CCC(C)CC2)cc1
[c] CCN(CC)CCCOc1ccc(/C(C)=N/O)cc1
[d] CCN(CC)CCCCOc1ccc(C#N)cc1
Order the entries by their reported pKi, beginning at the minimum. Form entry: ranked labels (order as requested). d, a, b, c
(d: 7.21, a: 7.55, b: 8.34, c: 8.57)
